B1: SPOPL (parent)
chain: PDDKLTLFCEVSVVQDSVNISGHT

- Variants of: B1
- Assay explanation: protein stability index of a GFP-peptide fusion (GPS, HEK-293T) (PSI 1-6); higher = more stable;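 further: lentivirally expressed fusions sorted by FACS into six bins by GFP to DsRed ratio, PSI derived from sequencing read proportions per bin multiplied by bin number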
- Run conditions: c terminus: a fixed tail appended
Measured property: protein stability index
Output spec: single numeric token, no unit.

Qu. What does the record list as protein stability index for PDDKLFLFCEVSVVQDSVNISGHT [T6F] ?
Ans. 2.98

Qu. Subsequent entry: PDDKLTLFCEVSVDQDSVNISGHT [V14D]
Ans. 3.07

Qu. Next variant up: PDDKLTLFCEVSVMQDSVNISGHT [V14M]
Ans. 2.01

Qu. Now give it for PDDKLNLFCEVSVVQDSVNISGHT [T6N] too.
Ans. 2.96
